Tested on: breast cancer cell line (MCF-7)
ASSAY PROCEDURE: Sulphorhodamine B (SRB) antiproliferative assay on MCF-7
ASSAY CONTEXT: Homo sapiens, MCF7, 48 h
MEASURED PARAMETER: IC50

MOLECULE | IC50
COc1ccc(-c2cc(=O)c3c(O)c(OC)c(OC)cc3o2)cc1 [Compound 4, 5-hydroxy-4’,6,7-trimethoxyflavone] | 18 µg/mL

Please state IC50 for every molecule in the list that follows.
1. COc1ccc(C2Oc3cc(O)cc(O)c3C(=O)C2O)cc1O (stereo not drawn) [Compound 6, dihydroquercetin 4′-methyl ether]
2. CC1(C)CC[C@]2(C(=O)O)CC[C@]3(C)C(=CC[C@@H]4[C@@]5(C)CC[C@H](O)C(C)(C)[C@@H]5CC[C@]43C)[C@@H]2C1 [Compound 3, Oleanolic acid]
3. COc1cc(O)c(C(C)=O)c(OC)c1 [Compound 1, 2-hydroxy-4,6-dimethoxyacetophenone]
4. CC[C@H](/C=C/[C@@H](C)[C@H]1CC[C@H]2[C@@H]3CC=C4C[C@@H](O)CC[C@]4(C)[C@H]3CC[C@]12C)C(C)C [Compound 2, Stigmasterol]
5. COc1cc(O)c2c(=O)c(O)c(-c3ccc(O)c(O)c3)oc2c1 [Compound 5, 5,3’,4’-trihydroxy-7 methoxyflavonol]

Key:
1: 22.5 µg/mL; 2: 30 µg/mL; 3: 23.5 µg/mL; 4: 47 µg/mL; 5: 18.5 µg/mL
